- test_target: human CLDN18.2 (human)
- test_summary: cell-based or functional assay
metric_name: ADCC EC50, PBMC effector cells, NUGC-4 target cells (nM)
Report only the number, with the unit nM understood.

>>> readout_number("humanized antibody hz40F6-1.4 (antibody, human IgG1, kappa, V domains shown) VH: QVQLVESGGGVVQPGRSLRLSCTVSGFTLTSYGVYWVRQAPGKGLEWVAVVWAGGNTNYNSALKGRFTISKDNSKSTLYLQMNSLRAEDTAVYYCARDRGRLLAMDYWGQGTLVTVSS VL: DIVMTQSPDSLAVSLGERATINCKSSQSLLNSGNQKNYLAWYQQKPGQPPKLLIYGASTRESGVPDRFTGSGSGTDFTLTISSLQAEDVAVYYCQNDHFFPFTFGQGTKVEIKR")
0.12

Attention now turns to another entry.
Quickly give me recorded ADCC EC50, PBMC effector cells, NUGC-4 target cells for chimeric antibody xi28G3 (antibody, human IgG1, kappa, V domains shown, Mouse variable regions on human IgG1/kappa; defucosylated, expressed in FUT8-knockout CHO-S cells; also called chimeric 28G3) VH: EIQLQQTGPELVKPGASVTISCKTSGYSFTDYLMLWVKQSHGKSLEWIGNINPYYGRTTYNLKFKGKATLTVDRSSSTAYMQLNSLTSEDSAVYYCARDGYSLRNAMDYWGQGTSVTVSS VL: DIVMTQSPYSLSVSTGEKVTMSCKSSQSLFNSGNQKNYLAWYQQKPGQPPKLLIYGASTRESGVPDRFTGSGSGTDFTLTISSVQAEDLALYYCQNAHSYPYTFGGGTKLEIKR 3.26

The values you see were collected from patent US20240409629A1.
